Reported Log K is given for each of the following molecules.
assay: Yttrium(III) stability constant of the compound.; assay type: physicochemical
Lab note: write the figure by itself, no unit.

Some solved cases for reference:
Need Log K, item O=C(O)CN(CC(=O)O)[C@@H](Cc1ccc([N+](=O)[O-])cc1)CN(CC(=O)O)[C@@H]1CCCC[C@H]1N(CC(=O)O)CC(=O)O
24.4

Need Log K, item O=C(O)CN(CCN(CC(=O)O)[C@@H]1CCCC[C@H]1N(CC(=O)O)CC(=O)O)CC(=O)O
24.2

Need Log K, item CC(CN(CC(=O)O)CC(=O)O)N(CC(=O)O)CC(Cc1ccc([N+](=O)[O-])cc1)N(CC(=O)O)CC(=O)O (stereo not drawn)
22.5

Need Log K, item CC(CN(CC(=O)O)CC(Cc1ccc([N+](=O)[O-])cc1)N(CC(=O)O)CC(=O)O)N(CC(=O)O)CC(=O)O (stereo not drawn)
22.5

Need Log K, item O=C(O)CN(CCN(CC(=O)O)CC(Cc1ccc([N+](=O)[O-])cc1)N(CC(=O)O)CC(=O)O)CC(=O)O (stereo not drawn)
21.5

Need Log K, item O=C(O)CN(CC(=O)O)[C@H](Cc1ccc([N+](=O)[O-])cc1)CN(CC(=O)O)[C@@H]1CCCC[C@H]1N(CC(=O)O)CC(=O)O
24.7

Need Log K, item O=C(O)CN(CCN(CC(=O)O)CC(=O)O)CCN(CC(=O)O)CC(=O)O
22.4

Continuing:
Need Log K, item O=C(O)CN(CCN(CC(=O)O)C(Cc1ccc([N+](=O)[O-])cc1)CN(CC(=O)O)CC(=O)O)CC(=O)O (stereo not drawn)
21.7

Source listed as ChEMBL document CHEMBL1131089.
